Assay: Cytotoxicity against human HRT18 cells after 4 days by MTS assay
Format: cell-based, HRT-18
VALUE TYPE: CC50 at 96 h (µM)
Supply the numeric figure in µM, leaving out any unit text.

Any idea what its CC50 at 96 h is? The compound is CCN(CC)CCCC(C)Nc1ccnc2cc(Cl)ccc12.O=P(O)(O)O.O=P(O)(O)O (stereo unspecified) [CHLOROQUINE PHOSPHATE]
419
